Provenance of the data: patent US20240190841A1

# targetUnderTest: BCL6 (Homo sapiens, UniProt P41182)
# Construct: endogenous in cells; host or cells: T47D breast cancer epithelial cells
# assayProcedure: Immunofluorescence high content imaging of BCL6 degradation in T47D cells
# Format: cell-based
# testContext: T47D breast cancer epithelial cells, 3 days incubation
readoutLabel: Dmax

CNC(=O)COc1cc2cc(Nc3nc(N4CCC(CN5CCC(C6CCN(c7ccc8c(c7F)CN(C7CCC(=O)NC7=O)C8=O)CC6)C(F)C5)CC4)ncc3Cl)ccc2n(C(C)C)c1=O (centres unmarked) | 50 to 70%
CNC(=O)COc1cc2cc(Nc3nc(N4CCC(O[C@H]5C[C@H](N6CCN(c7cc8c(cc7C)n(C7CCC(=O)NC7=O)c(=O)n8C)CC6)C5)CC4)ncc3Cl)ccc2n(C(C)C)c1=O (some centres unmarked) | ≥ 70%
CNC(=O)COc1cc2cc(Nc3nc(N4CCC(O[C@H]5C[C@H](N6CC[C@H](c7cc(C)c8c(c7F)CN([C@H]7CCC(=O)NC7=O)C8=O)[C@H](F)C6)C5)CC4)ncc3Cl)ccc2n(C(C)C)c1=O | ≥ 70%
CNC(=O)COc1cc2cc(Nc3nc(N4CCC(O[C@H]5C[C@H](N6CCN(c7ccc8c(n7)n(C)c(=O)n8C7CCC(=O)NC7=O)CC6)C5)CC4)ncc3Cl)ccc2n(C(C)C)c1=O (some centres unmarked) | ≥ 70%

Query: Given CNC(=O)COc1cc2cc(Nc3nc(N4CCC(O[C@H]5C[C@H](N6CCN(c7ccc8c(ccn8C8CCC(=O)NC8=O)c7)CC6)C5)CC4)ncc3Cl)ccc2n(C(C)C)c1=O (some centres unmarked) , state its recorded Dmax.
Reply: ≥ 70%
